Values were extracted from ChEMBL document CHEMBL3769381.

# Target or system: Adenosine receptor A3 (Homo sapiens) (UniProt P0DMS8)
# Sequence (P0DMS8 whole entry): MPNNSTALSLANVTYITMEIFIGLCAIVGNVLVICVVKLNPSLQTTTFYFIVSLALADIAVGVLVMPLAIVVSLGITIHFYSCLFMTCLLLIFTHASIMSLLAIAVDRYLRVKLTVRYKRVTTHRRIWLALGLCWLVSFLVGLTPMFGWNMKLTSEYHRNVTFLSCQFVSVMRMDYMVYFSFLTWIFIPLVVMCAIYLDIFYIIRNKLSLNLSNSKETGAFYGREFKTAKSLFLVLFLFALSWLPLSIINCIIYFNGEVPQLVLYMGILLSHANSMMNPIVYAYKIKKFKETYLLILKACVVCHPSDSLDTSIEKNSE
# Protocol: Agonist activity at human Adenosine A3 receptor transfected in CHO-K1 cells assessed as inhibition of forskolin-stimulated cAMP production after 30 mins by multimode microplate reader analysis relative to total forskolin
# Assay type: functional, cell-based
# Set-up: concentration or dose not given beside the values
Activity calls are given as the source filed them. The calls are words filed in the database; no cut-off is given here.
Readout: Activity

The following molecules have reported results that may help.
* CCNC(=O)[C@H]1O[C@@H](n2cnc3c(NC4C5CC6CC(C5)CC4C6)ncnc32)[C@H](O)[C@@H]1O (stereo not given in full) | inactive
* OC[C@H]1O[C@@H](n2cnc3c(NC45CC6CC(CC(C6)C4)C5)ncnc32)[C@H](O)[C@@H]1O | inactive
* CCNC(=O)[C@H]1O[C@@H](n2cnc3c(NC45CC6CC(CC(O)(C6)C4)C5)ncnc32)[C@H](O)[C@@H]1O | -32.7%
* CCNC(=O)[C@H]1O[C@@H](n2cnc3c(N[C@@H]4CCC[C@H]4O)ncnc32)[C@H](O)[C@@H]1O | -37.9%
* OC[C@H]1O[C@@H](n2cnc3c(N[C@@H]4CCC[C@H]4OCc4ccccc4)ncnc32)[C@H](O)[C@@H]1O | inactive
* CCNC(=O)[C@H]1O[C@@H](n2cnc3c(N)ncnc32)[C@H](O)[C@@H]1O | -44.1%

Input line: Fill in the recorded Activity for this molecule, with Adenosine receptor A3 (Homo sapiens) (UniProt P0DMS8) as test system: CCNC(=O)[C@H]1O[C@@H](n2cnc3c(N[C@@H]4CCC[C@H]4OCc4ccccc4)ncnc32)[C@H](O)[C@@H]1O
Output line: -38%

Input line: Form entry - test system: Adenosine receptor A3 (Homo sapiens) (UniProt P0DMS8); read-out: Activity; molecule: OC[C@H]1O[C@@H](n2cnc3c(NC4CCCC4)nc(Cl)nc32)[C@H](O)[C@@H]1O
Output line: -46.6%

Input line: What value of Activity on Adenosine receptor A3 (Homo sapiens) (UniProt P0DMS8) does OC[C@H]1O[C@@H](n2cnc3c(N[C@@H]4CCC[C@H]4O)ncnc32)[C@H](O)[C@@H]1O have?
Output line: -35.1%

Input line: // fetch Adenosine receptor A3 (Homo sapiens) (UniProt P0DMS8) Activity for CCNC(=O)[C@H]1O[C@@H](n2cnc3c(NC45CC6CC(CC(C6)C4)C5)ncnc32)[C@H](O)[C@@H]1O
Output line: inactive
